Reference source for all entries: patent US20070254863A1

Ki listing for selected compounds.
system_under_test: hamster SUR1 (Cricetus cricetus)
Construct: expressed in transfected cells; host or cells: COS-1 cells, transient (pcDNA vector)
method: In vitro binding affinity to rodent KATP channels: SUR1 ([3H]glibenclamide displacement, COS cell membranes)
condition_set: hamster SUR1 in COS cell membranes; read-out: Affinity to SUR 1 (converted)
Please reply with the bare figure in µM and do not write the unit itself.

Recorded Ki, per entry:
| compound | system_under_test | result_number |
| --- | --- | --- |
| CCc1c(C(=O)NN2CCCCC2)nc(-c2ccc(Cl)cc2Cl)n1-c1ccc(Cl)cc1 | hamster SUR1 (Cricetus cricetus) | 5.01 |
| O=C(NN1CCCCC1)c1nc(-c2ccc(Cl)cc2Cl)n(-c2ccc(Cl)cc2)n1 | hamster SUR1 (Cricetus cricetus) | 10 |
| CCc1c(C(=O)NC2CCCCC2)nc(-c2ccc(Cl)cc2Cl)n1-c1ccc(Br)cc1 | hamster SUR1 (Cricetus cricetus) | 100 |
| CON/C(=N\S(=O)(=O)c1ccc(Cl)cc1)N1C[C@H](c2cccc(F)c2)C(c2ccc(Cl)cc2)=N1 | hamster SUR1 (Cricetus cricetus) | 2.51 |
| CCCCCc1nc(C(=O)NC23CC4CC(CC(C4)C2)C3)sc1-c1ccccc1 | hamster SUR1 (Cricetus cricetus) | 100 |

In: Would you kindly share the measured Ki for CNC(=NS(=O)(=O)N1CCCCC1)N1CC(c2cccc(F)c2)C(c2ccc(Cl)cc2)=N1 (stereo not drawn) ?
Out: 31.6

====

Ki listing for selected molecules.
system_under_test: hamster SUR1 (Cricetus cricetus)
Construct: expressed in transfected cells; host or cells: COS-1 cells, transient (pcDNA vector)
method: In vitro binding affinity to rodent KATP channels: SUR1 ([3H]glibenclamide displacement, COS cell membranes)
condition_set: hamster SUR1 in COS cell membranes; read-out: Affinity to SUR 1 (converted)
# do not omit the unit; it follows the number

In: hamster SUR1 (Cricetus cricetus) / Ki / CS(=O)(=O)C(=C1CN(C(c2ccc(Cl)cc2)c2ccc(Cl)cc2)C1)c1cc(F)cc(F)c1 [reference compound] : value?
Out: 5.01 µM

In: hamster SUR1 (Cricetus cricetus) / Ki / Cc1c(C(=O)NN2CCCCC2)nn(-c2ccc(Cl)cc2Cl)c1-c1ccc(Cl)cc1 [Rimonabant, reference compound] : value?
Out: 5.01 µM

In: hamster SUR1 (Cricetus cricetus) / Ki / CNC(=NS(=O)(=O)N1CCOCC1)C1=NN(c2ccc(Cl)cc2Cl)C(c2ccccc2)C1 (stereo not drawn) : value?
Out: 5.01 µM

====

log10 of Ki listing for selected molecules.
system_under_test: hamster SUR1 (Cricetus cricetus, UniProt Q09427)
Construct: expressed in transfected cells; host or cells: COS-1 cells, transient (pcDNA vector)
Sequence (Q09427 whole entry): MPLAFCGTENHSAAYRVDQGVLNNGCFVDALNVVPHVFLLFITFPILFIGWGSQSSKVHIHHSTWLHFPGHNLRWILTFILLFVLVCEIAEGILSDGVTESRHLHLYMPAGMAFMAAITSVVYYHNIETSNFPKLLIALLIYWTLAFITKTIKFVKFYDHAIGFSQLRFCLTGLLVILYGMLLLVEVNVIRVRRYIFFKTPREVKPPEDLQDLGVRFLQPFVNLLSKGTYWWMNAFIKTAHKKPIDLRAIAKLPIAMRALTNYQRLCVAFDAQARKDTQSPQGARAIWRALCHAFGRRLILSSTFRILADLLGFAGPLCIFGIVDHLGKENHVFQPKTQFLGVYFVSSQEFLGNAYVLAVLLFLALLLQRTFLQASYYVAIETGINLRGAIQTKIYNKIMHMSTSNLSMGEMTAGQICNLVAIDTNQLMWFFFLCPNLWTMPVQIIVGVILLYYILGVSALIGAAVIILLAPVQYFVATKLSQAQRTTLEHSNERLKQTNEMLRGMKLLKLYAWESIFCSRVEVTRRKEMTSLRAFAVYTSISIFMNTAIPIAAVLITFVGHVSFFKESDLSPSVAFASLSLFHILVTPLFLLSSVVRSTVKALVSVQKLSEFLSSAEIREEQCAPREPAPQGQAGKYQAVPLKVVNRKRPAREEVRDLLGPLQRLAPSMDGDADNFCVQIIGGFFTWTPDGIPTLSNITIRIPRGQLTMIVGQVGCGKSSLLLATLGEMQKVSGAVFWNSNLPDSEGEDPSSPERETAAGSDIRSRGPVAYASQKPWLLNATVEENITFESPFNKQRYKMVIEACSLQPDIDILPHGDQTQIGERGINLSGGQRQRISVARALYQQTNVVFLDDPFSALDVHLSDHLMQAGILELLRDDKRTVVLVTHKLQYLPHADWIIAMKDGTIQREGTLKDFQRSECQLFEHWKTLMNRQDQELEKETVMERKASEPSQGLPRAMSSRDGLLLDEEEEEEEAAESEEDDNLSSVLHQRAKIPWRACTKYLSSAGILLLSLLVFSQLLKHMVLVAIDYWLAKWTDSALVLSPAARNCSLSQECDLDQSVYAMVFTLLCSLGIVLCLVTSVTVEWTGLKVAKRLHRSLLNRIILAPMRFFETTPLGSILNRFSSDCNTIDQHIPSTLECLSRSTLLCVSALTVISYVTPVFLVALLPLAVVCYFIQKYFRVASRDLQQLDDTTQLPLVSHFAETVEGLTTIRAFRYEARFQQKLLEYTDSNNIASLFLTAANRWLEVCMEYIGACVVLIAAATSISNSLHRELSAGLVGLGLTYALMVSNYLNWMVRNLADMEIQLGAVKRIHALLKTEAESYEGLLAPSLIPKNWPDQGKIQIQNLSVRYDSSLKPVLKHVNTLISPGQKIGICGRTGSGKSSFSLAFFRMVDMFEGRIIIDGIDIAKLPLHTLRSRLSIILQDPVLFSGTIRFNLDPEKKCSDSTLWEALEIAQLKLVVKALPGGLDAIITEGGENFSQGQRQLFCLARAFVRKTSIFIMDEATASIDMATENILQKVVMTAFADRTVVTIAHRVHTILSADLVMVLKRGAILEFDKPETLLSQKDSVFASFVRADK
method: In vitro binding affinity to rodent KATP channels: SUR1 ([3H]glibenclamide displacement, COS cell membranes)
condition_set: hamster SUR1 in COS cell membranes; read-out: Affinity to SUR 1 (converted)
// units: µM (pre-log); metric: Ki; scale: log10

Recorded log10 of Ki, per entry:
| molecule | log10 of Ki |
| --- | --- |
| CNC(=NS(=O)(=O)c1ccc(Cl)cc1)N1CC(c2cccnc2)C(c2ccc(Cl)cc2)=N1 (centres unmarked) | 0.40 |
| CN/C(=N\S(=O)(=O)c1ccc(C(F)(F)F)cc1)N1CC(c2cccnc2)C(c2ccc(Cl)cc2)=N1 (centres unmarked) | -0.30 |
| O=C(NN1CCCC1)c1nc(-c2ccc(Cl)cc2)n(-c2ccc(Cl)cc2Cl)n1 | 2.00 |

In: Would you kindly share the measured log10 of Ki for CON(C)C(=NS(=O)(=O)c1ccc(Cl)cc1)N1CC(c2ccccc2)C(c2ccc(Cl)cc2)=N1 (centres unmarked) ?
Out: 0.10

In: Would you kindly share the measured log10 of Ki for Cc1c(NC(=O)c2ccccc2)nc(-c2ccc(Cl)cc2Cl)n1-c1ccc(Cl)cc1 ?
Out: 0.30
